Data provenance is patent US20240343803A1.

Kindly state IC50 for each of the entries shown.
- SYSTEM: T1, Fusion protein of extracellular domain of human TIGIT and human IgG1 Fc fragment (human TIGIT ECD-hFc) (human)
- T1 construct: The entry includes the signal peptide (limits not recoverable) and the human IgG1 Fc
- T1 sequence (chain, as listed by the source limits assumed): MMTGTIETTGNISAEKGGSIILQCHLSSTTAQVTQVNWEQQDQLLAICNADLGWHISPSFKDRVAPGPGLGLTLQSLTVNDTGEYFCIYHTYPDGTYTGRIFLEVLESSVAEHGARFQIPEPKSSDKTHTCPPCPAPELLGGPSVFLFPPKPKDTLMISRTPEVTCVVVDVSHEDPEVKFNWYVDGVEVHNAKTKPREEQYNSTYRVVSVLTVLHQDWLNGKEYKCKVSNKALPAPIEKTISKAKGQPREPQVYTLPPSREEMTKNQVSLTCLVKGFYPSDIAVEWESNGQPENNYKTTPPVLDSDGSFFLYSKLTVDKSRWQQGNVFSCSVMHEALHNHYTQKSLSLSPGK
- PROTOCOL TEXT: blocking of TIGIT ECD-hFc binding to CHO-K1 CD155 cells
Returns: string containing the numeric result and its unit.

Recorded IC50 for TIGIT-070-H2L1 (antibody, V domains shown, Humanized anti-TIGIT antibody) VH: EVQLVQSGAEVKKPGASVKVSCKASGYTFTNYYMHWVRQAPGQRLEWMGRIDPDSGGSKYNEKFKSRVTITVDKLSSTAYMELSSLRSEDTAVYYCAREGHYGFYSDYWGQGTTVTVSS VL: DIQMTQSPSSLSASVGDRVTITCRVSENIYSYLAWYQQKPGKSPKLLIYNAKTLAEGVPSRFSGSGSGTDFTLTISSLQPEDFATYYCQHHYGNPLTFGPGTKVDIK , please?
0.393 nM

Moving on to the next binder: TIGIT-006-H3L3 (antibody, V domains shown, Humanized anti-TIGIT antibody) VH: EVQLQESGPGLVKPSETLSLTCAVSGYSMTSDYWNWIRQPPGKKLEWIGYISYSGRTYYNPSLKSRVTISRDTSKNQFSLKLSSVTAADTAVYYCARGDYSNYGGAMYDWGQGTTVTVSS VL: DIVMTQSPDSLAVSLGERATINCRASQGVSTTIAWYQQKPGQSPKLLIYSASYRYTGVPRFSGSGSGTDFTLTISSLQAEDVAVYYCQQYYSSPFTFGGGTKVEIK
0.681 nM

And for TIGIT-006-H1L2 (antibody, V domains shown, Humanized anti-TIGIT antibody) VH: EVQLQESGPGLVKPSETLSLTCAVSGYSITSDYWNWIRQPPGKGLEWIGYISYSGRTYYNPSLKSRVTISRDTSKNQFSLKLSSVTAADTAVYYCARGDYSNYGGAMYDWGQGTTVTVSS VL: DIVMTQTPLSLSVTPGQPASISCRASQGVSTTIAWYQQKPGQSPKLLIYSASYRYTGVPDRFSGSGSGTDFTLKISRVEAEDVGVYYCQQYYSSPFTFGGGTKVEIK ?
1.58 nM

Again, but for TIGIT-002-H3L1 (antibody, V domains shown, Humanized anti-TIGIT antibody) VH: EVQLQESGPGLVKPSETLSLTCAVSGYSITSDSWNWIRQPPGKKLEWMGYISYSGNTYYNPSLKSRITISRDTSKNQFSLKLSSVTAADTAVYYCARLDFSNYGGAVDYWGQGTTVTVSS VL: DIVMTQTPLSLSVTPGQPASISCKASQNVRTAVAWYLQKPGQSPQLMIYSASYRYTGVPDRFSGSGSGTDFTLKISRVEAEDVGVYYCQQYYTTPWTFGGGTKVEIK
0.459 nM

// query: TIGIT-070-H3L2 (antibody, V domains shown, Humanized anti-TIGIT antibody) VH: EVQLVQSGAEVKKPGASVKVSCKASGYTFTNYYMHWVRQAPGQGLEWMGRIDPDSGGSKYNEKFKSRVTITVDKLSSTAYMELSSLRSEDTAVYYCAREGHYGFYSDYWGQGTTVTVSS VL: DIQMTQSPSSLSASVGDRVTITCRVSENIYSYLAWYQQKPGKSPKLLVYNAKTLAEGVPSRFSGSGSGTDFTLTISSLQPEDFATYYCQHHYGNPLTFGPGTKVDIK
0.423 nM
